System: white mice
assay_method_text: Acute toxicity, oral
Assay type: in vivo
condition: 14 days, at the dose given as LD50
Description: The above pharmacologicaly activity of the compounds of this invention, as well as their acute toxicities, were ascertained along with those of the three antihyperlipidemic compounds of the prior art by the standard test methods described below. The acute toxicity was determined on groups of 5 or 6 white mice each, after oral administration of the test compound at dosage levels of 2.5 gm/kg, 5 gm/kg and 10 gm/kg (observation time 14 days).
metric_name: animals died

compound: COC(=O)C(C)(C)Oc1ccc(-c2ccc(Cl)cc2)cc1 [D]
measured_on: white mice
result: 3 out of 5
//
compound: COc1ccc(Cl)cc1C(=O)NCCc1ccc(-c2ccc(OC(C)(C)C(=O)O)cc2)cc1 [A]
measured_on: white mice
result: 0 out of 5
//
compound: COc1ccccc1C(=O)NCCc1ccc(-c2ccc(OC(C)(C)C(=O)O)cc2)cc1 [B]
measured_on: white mice
result: 1 out of 5
